This section presents IC50 values reported for Histone deacetylase 7 (Homo sapiens) in the literature.
metricName: IC50 (µM)

>  <compound>
O=C(NO)c1ccc(-c2nc3ccccc3s2)cc1

>  <measurementUnits>
µM

>  <censoringQualifier>
=

>  <measured>
3.04

$$$$
>  <compound>
O=C(CCc1ccc(O)c(O)c1)c1ccccc1

>  <measurementUnits>
µM

>  <censoringQualifier>
=

>  <measured>
12

$$$$
>  <compound>
CC[C@H]1OC(=O)[C@H](C)[C@@H](O[C@H]2C[C@@](C)(OC)[C@@H](O)[C@H](C)O2)[C@H](C)[C@@H](O[C@@H]2O[C@H](C)C[C@H](N(C)Cc3ccc(-c4cn(CCCCCCC(=O)NO)nn4)cc3)[C@H]2O)[C@](C)(O)C[C@@H](C)CN(C)[C@H](C)[C@@H](O)[C@]1(C)O

>  <measurementUnits>
µM

>  <censoringQualifier>
=

>  <measured>
2.62

$$$$
>  <compound>
Br.CN(C)C(SCCCCCCn1cnc2c(-c3cc(Br)c(Br)[nH]3)nccc21)=[N+](C)C.[Cl-]

>  <measurementUnits>
µM

>  <censoringQualifier>
>

>  <measured>
200

$$$$
>  <compound>
O=C(CCCCc1ccccc1)CCc1ccc(O)c(Cl)c1

>  <measurementUnits>
µM

>  <censoringQualifier>
=

>  <measured>
30.7

$$$$
>  <compound>
O=C(/C=C/c1cccc(S(=O)(=O)c2ccc3ccccc3n2)c1)NO

>  <measurementUnits>
µM

>  <censoringQualifier>
=

>  <measured>
12.3

$$$$
>  <compound>
COc1cc(CCC(=O)CCCCc2ccccc2)ccc1O

>  <measurementUnits>
µM

>  <censoringQualifier>
>

>  <measured>
40

$$$$
>  <compound>
O=C(/C=C/c1ccc(O)c(O)c1)Cc1ccccc1

>  <measurementUnits>
µM

>  <censoringQualifier>
=

>  <measured>
15.4

$$$$
>  <compound>
O=C(CCCc1ccccc1)CCc1ccc(O)c(O)c1

>  <measurementUnits>
µM

>  <censoringQualifier>
=

>  <measured>
7.4

$$$$
>  <compound>
O=C(CCc1ccc(O)c(O)c1)Cc1ccccc1

>  <measurementUnits>
µM

>  <censoringQualifier>
=

>  <measured>
13.7

$$$$
